# Target Of Assay: CD33 (Sino Biological, Cat #12238-H08H) (UniProt P20138 18-259)
# Sequence (P20138 18-259 limits assumed): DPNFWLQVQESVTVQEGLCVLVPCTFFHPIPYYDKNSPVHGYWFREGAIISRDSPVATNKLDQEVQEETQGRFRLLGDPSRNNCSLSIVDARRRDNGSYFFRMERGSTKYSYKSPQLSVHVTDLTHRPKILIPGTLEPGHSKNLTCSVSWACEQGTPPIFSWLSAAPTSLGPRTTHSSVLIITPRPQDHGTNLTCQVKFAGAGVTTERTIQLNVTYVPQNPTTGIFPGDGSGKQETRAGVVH
# Protocol Details: BLI, IgG captured on anti-human Fc sensor, 50 nM CD33, pH 7.4 vs pH 5.4
Observation Type: binding result

MYT2669 (antibody, V domains shown, IgG; vadastuximab VL variant #17 (V55H)) VH: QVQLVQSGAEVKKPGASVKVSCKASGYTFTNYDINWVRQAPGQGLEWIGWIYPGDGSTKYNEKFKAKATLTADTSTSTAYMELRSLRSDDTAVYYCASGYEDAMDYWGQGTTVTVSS VL: DIQMTQSPSSLSASVGDRVTINCKASQDINSYLSWFQQKPGKAPKTLIYRANRLHDGVPSRFSGSGSGQDYTLTISSLQPEDFATYYCLQYDEFPLTFGGGTKVEIK : binds
MYT2627 (antibody, V domains shown, IgG; IMGN779 VL variant #11 (S34H)) VH: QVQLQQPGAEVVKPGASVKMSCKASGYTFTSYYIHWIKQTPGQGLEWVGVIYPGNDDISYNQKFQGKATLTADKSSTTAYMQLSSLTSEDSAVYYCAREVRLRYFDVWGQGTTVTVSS VL: EIVLTQSPGSLAVSPGERVTMSCKSSQSVFFSSHQKNYLAWYQQIPGQSPRLLIYWASTRESGVPDRFTGSGSGTDFTLTISSVQPEDLAIYYCHQYLSSRTFGQGTKLEIK : binds
MYT1610 (antibody, V domains shown, IgG; gemtuzumab VL variant #21 (G59H)) VH: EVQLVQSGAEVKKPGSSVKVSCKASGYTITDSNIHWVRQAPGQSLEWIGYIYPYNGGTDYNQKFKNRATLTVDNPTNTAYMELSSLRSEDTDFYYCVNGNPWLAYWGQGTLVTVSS VL: DIQLTQSPSTLSASVGDRVTITCRASESLDNYGIRFLTWFQQKPGKAPKLLMYAASNQHSGVPSRFSGSGSGTEFTLTISSLQPDDFATYYCQQTKEVPWSFGQGTKVEVK : binds
